Numbers sourced from patent US10760052B2.

tgt: mu opiate receptor (MOR) (Rattus norvegicus)
Construct: from tissue; host or cells: striatum (membrane preparation)
Type: biochemical
Catalogue of % DAMGO (1 μM) values
Please state the figure in %; there is no need to write the unit.

These solved cases illustrate the format of a correct answer.
>>> df
                                   molecule  measurement_type  numeric_readout
0  COc1c2c(cc3c1C(CC(=O)c1ccc(N4CCOCC4)cc1)[N+](C)(C)CC3)OCO2 (centres unmarked) [Compound B0004]    % DAMGO (1 μM)             85.8
1  COc1ccc(C(=O)N2CCC3(CC2)OCCN3C(=O)c2ccc(OC)cc2)cc1 [Compound C0017]    % DAMGO (1 μM)            109.7
2  COc1cccc(S(=O)(=O)N2CCC3(CC2)OCCN3S(=O)(=O)c2cccc(OC)c2)c1 [Compound C0002]    % DAMGO (1 μM)             33.9

Q. Would you mind telling me what % DAMGO (1 μM) value was observed for COc1ccc(OC)c(CCC(=O)CC2c3c(cc4c(c3OC)OCO4)CC[N+]2(C)C)c1 (centres unmarked) [Compound B0044] ?
A. 66.9

Q. Would you mind telling me what % DAMGO (1 μM) value was observed for CC(=O)c1ccc(C(=O)N2CCC3(CC2)OCCN3C(=O)c2ccc(C(C)=O)cc2)cc1 [Compound C0054] ?
A. 54.5

Q. Would you mind telling me what % DAMGO (1 μM) value was observed for COCOc1ccc(CCC(=O)CC2c3c(cc4c(c3OC)OCO4)CC[N+]2(C)C)cc1 (centres unmarked) [Compound B0040] ?
A. 105.1

Q. Would you mind telling me what % DAMGO (1 μM) value was observed for COc1ccc(C(=O)CC2c3c(cc4c(c3OC)OCO4)CC[N+]2(C)C)c(F)c1 (centres unmarked) [Compound B0027] ?
A. 100.0

Q. Would you mind telling me what % DAMGO (1 μM) value was observed for CC(=O)c1ccc(S(=O)(=O)N2CCC3(CC2)OCCN3S(C)(=O)=O)cc1 [Compound C0056] ?
A. 83.0

Q. Would you mind telling me what % DAMGO (1 μM) value was observed for COc1ccc(C(=O)CC2c3c(cc4c(c3OC)OCO4)CC[N+]2(C)C)cc1 (centres unmarked) [Compound B0024] ?
A. 116.7

Q. Would you mind telling me what % DAMGO (1 μM) value was observed for CC1CCC(C(C)C)C(OCC(O)CN2CC(C)OC(C)C2)C1 (centres unmarked) [Compound A3333] ?
A. 101.0

Q. Would you mind telling me what % DAMGO (1 μM) value was observed for CC1CN(CC(O)COc2ccc(Br)c(F)c2)CC(C)O1 (centres unmarked) [Compound A0041] ?
A. 102.8

Q. Would you mind telling me what % DAMGO (1 μM) value was observed for COc1ccc(S(=O)(=O)N2CCSC23CCNCC3)cc1 [S-C0027] ?
A. 84.4

Q. Would you mind telling me what % DAMGO (1 μM) value was observed for COc1c2c(cc3c1OCO3)CCN(CC(O)COC1CC(C)CCC1C(C)C)C2 (centres unmarked) [Compound A0061] ?
A. 85.5

====

tgt: mu opiate receptor (MOR) (Rattus norvegicus, UniProt P33535)
Construct: from tissue; host or cells: striatum (membrane preparation)
Sequence (P33535 whole entry): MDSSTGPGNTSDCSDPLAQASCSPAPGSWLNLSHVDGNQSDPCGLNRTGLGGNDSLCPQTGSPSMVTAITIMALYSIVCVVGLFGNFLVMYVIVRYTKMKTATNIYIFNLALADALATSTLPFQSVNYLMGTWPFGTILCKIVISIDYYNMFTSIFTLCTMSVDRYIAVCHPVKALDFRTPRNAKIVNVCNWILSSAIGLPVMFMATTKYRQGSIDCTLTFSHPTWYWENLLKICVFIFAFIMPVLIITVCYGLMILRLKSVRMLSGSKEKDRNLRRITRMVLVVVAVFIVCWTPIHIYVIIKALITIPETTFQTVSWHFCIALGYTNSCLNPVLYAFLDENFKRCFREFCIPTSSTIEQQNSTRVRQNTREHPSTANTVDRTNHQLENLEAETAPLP
Assay type: biochemical
% DAMGO (1 μM) below 70% gives 0; % DAMGO (1 μM) at or above it gives 1.

For orientation, consider the following solved cases.
>>> print(df.to_string())
                                   compound  class
0  CC(=O)c1ccc(S(=O)(=O)N2CCC3(CC2)NCCS3)cc1      1
1  O=S(=O)(c1ccccc1)N1CCC2(CC1)OCCN2S(=O)(=O)c1ccccc1      1
2  CC1CN(CC(O)COc2ccc(Br)c(Cl)c2)CC(C)O1 (stereo not drawn)      1

Q. Determine whether measured % DAMGO (1 μM) meets or exceeds 70% for CC1CCC(C(C)C)C(OCC(O)CN2CCC2)C1 (stereo not drawn)
A. 0

Q. Determine whether measured % DAMGO (1 μM) meets or exceeds 70% for CC1CCC(C(C)C)C(OCC(O)CN2CCCC2=O)C1 (stereo not drawn)
A. 0

Q. Determine whether measured % DAMGO (1 μM) meets or exceeds 70% for CC1CN(CC(O)COc2cccc(N(C)C)c2)CC(C)O1 (stereo not drawn)
A. 1

Q. Determine whether measured % DAMGO (1 μM) meets or exceeds 70% for COc1ccccc1C(=O)CC1c2c(cc3c(c2OC)OCO3)CC[N+]1(C)C (stereo not drawn)
A. 1

Q. Determine whether measured % DAMGO (1 μM) meets or exceeds 70% for CC(=O)c1ccc(C(=O)N2CCOC23CCN(S(=O)(=O)c2ccc(C(C)=O)cc2)CC3)cc1
A. 0

====

tgt: mu opiate receptor (MOR) (Rattus norvegicus, UniProt P33535)
Construct: from tissue; host or cells: striatum (membrane preparation)
Assay type: biochemical
test settings: 0.1 μM compound; striatal membranes; Series C-2
Catalogue of [35S]GTPγS binding, FLNA-Binding Compound as Agonist at 0.1 μM values
Please state the figure in %; there is no need to write the unit.

>>> df
                                   molecule                                       tgt  numeric_readout
0  CCOC(=O)CN1CCC2(CC1)OCCN2S(=O)(=O)c1ccc(C(C)=O)cc1 [Compound C0099M]  mu opiate receptor (MOR) (Rattus norvegicus, UniProt P33535)            157.2
1  COc1ccc(S(=O)(=O)N2CCC3(CC2)NCCC(=O)N3)cc1 [Compound C0142M]  mu opiate receptor (MOR) (Rattus norvegicus, UniProt P33535)            143.7
2  CN1CCC2(CC1)OCCN2S(=O)(=O)c1ccc(S(C)(=O)=O)cc1 [Compound C0106M]  mu opiate receptor (MOR) (Rattus norvegicus, UniProt P33535)            171.8
3  CS(=O)(=O)c1ccc(S(=O)(=O)N2CCOC23CCN(CC2CC2)CC3)cc1 [Compound C0126M]  mu opiate receptor (MOR) (Rattus norvegicus, UniProt P33535)            181.8
4  O=[N+]([O-])c1ccc(S(=O)(=O)N2CCC3(CC2)NCCCO3)cc1  mu opiate receptor (MOR) (Rattus norvegicus, UniProt P33535)            149.2

Q. Would you mind telling me what [35S]GTPγS binding, FLNA-Binding Compound as Agonist at 0.1 μM value was observed for CC(=O)c1ccc(S(=O)(=O)N2CCOC23CCNCC3)cc1 ?
A. 286.2

Q. Would you mind telling me what [35S]GTPγS binding, FLNA-Binding Compound as Agonist at 0.1 μM value was observed for CC(=O)c1ccc(S(=O)(=O)N2CCOC23CCN(CC2CC2)CC3)cc1 [Compound C0095M] ?
A. 189.1

Q. Would you mind telling me what [35S]GTPγS binding, FLNA-Binding Compound as Agonist at 0.1 μM value was observed for CCN1CCC2(CC1)OCCN2S(=O)(=O)c1ccc(OC)cc1 [Compound C0089M] ?
A. 234.5

====

Catalogue of % DAMGO + BFNA values
tgt: mu opiate receptor (MOR) (Rattus norvegicus, UniProt P33535)
Construct: from tissue; host or cells: striatum (membrane preparation)
Type: biochemical
Please state the figure in %; there is no need to write the unit.

>>> print(df.to_string())
                                   molecule  measurement_unit  numeric_readout
0  O=S(=O)(c1ccc(Br)cc1C(F)(F)F)N1CCC2(CC1)OCCN2S(=O)(=O)c1ccc(Br)cc1C(F)(F)F                 %            307.8
1  O=S(=O)(c1cccc2cccnc12)N1CCC2(CC1)OCCN2S(=O)(=O)c1cccc2cccnc12 [Compound C0143M]                 %             94.7
2  CC(=O)c1ccc(S(=O)(=O)N2C(Cc3c[nH]cn3)C(=O)NC23CCNCC3)cc1 (centres unmarked) [Compound C0119M]                 %             89.3
3  COc1ccc(C(=O)CC2c3c(cc4c(c3OC)OCO4)CC[N+]2(C)C)c(O)c1 (centres unmarked)                 %             95.4
4  N#Cc1ccc(S(=O)(=O)N2CCC3(CC2)OCCN3S(=O)(=O)c2ccc(C#N)cc2)cc1                 %              4.4

Q. Would you mind telling me what % DAMGO + BFNA value was observed for COc1cccc(CC(=O)CC2c3c(cc4c(c3OC)OCO4)CC[N+]2(C)C)c1OC (centres unmarked) ?
A. 359.2

Q. Would you mind telling me what % DAMGO + BFNA value was observed for CC1CN(CC(O)COc2ccc(Br)c(F)c2)CC(C)O1 (centres unmarked) ?
A. 68.5

Q. Would you mind telling me what % DAMGO + BFNA value was observed for COc1c2c(cc3c1C(CC(O)Cc1ccccc1C)N(C)CC3)OCO2 (centres unmarked) ?
A. 668.7
